Origin of values: patent US20060264460A1

Biological target: human Cot/Tpl2 kinase (Homo sapiens)
Construct: human Cot/Tpl2 kinase construct encoding residues 30-398; 6His (N); made in house; host or cells: Sf9 insect cells, baculovirus system (BD Biosciences)
Sequence (P41279 30-398): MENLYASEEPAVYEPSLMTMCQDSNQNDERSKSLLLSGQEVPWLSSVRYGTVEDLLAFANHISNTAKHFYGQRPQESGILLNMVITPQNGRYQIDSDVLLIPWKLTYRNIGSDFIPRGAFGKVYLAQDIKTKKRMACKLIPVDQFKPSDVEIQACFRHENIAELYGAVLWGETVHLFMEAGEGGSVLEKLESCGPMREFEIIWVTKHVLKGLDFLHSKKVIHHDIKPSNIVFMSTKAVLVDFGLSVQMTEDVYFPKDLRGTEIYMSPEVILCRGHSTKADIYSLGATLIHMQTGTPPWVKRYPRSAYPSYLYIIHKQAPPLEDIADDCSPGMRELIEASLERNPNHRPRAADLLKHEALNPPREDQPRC
Experiment: Tpl2/Cot kinase assay: GST-MEK1 phosphorylation detected by ELISA (DELFIA Eu)
Type: biochemical
Settings: Table 2; Tpl2/Cot kinase, GST-MEK1 substrate, 50 uM ATP
pIC50: −log10 of the molar value.
Could you please report measured pIC50 for the items listed next?

## Input Name the recorded pIC50 for `CC(C)n1cnc(CNc2cc(Br)c3ncc(C#N)c(Nc4ccc(F)c(Cl)c4)c3c2)c1` .
## Output < 5.52

## Input Here is the next molecule: CN1CCCC1CCNC(=O)CNc1cc(Cl)c2ncc(C#N)c(Nc3ccc(F)c(Cl)c3)c2c1 (stereo not drawn)
## Output < 5.52

## Input Here is the next molecule: `N#Cc1cnc2c(Br)cc(N(Cc3cn(CCN4CCOCC4)nn3)Cc3cn(CCN4CCOCC4)nn3)cc2c1Nc1ccc(F)c(Cl)c1`
## Output < 4.40
